The measurements presented in this section are drawn from PubChem BioAssay (NCATS).

- method-summary: Cellular viability qHTS for adrenocortical cancer (ACC) cell line NCI-H295R (AID 1963990); also: nearly all actives have a fitted effect of over 60% in size; also: potency is read from the fitted curve at half-maximal effect
- test-context: CellTiter-Glo ATP luminescence, 48 h; series mostly up to 46.1 µM
Records with an inconclusive call do not appear. Active and inactive are the calls of the source. Calls follow the shape of the dose curve; as a rule, active = well fitted cell-killing curve with a large enough effect; inconclusive = small, poorly fitted or top-dose-only effect; inactive = flat fitted curve, though single readings scatter.
endpoint: Potency

- molecule: "N#Cc1c(NC(=O)c2cccc3ccccc23)sc2c1CCCC2"
  Potency: "562 nM (active)"
- molecule: "COc1c(N2CCNC(C)C2)c(F)cc2c(=O)c(C(=O)O)cn(C3CC3)c12 (stereo unspecified)"
  Potency: "inactive"
- molecule: "[O-][n+]1ccccc1SSc1cccc[n+]1[O-]"
  Potency: "89.3 nM (active)"
- molecule: "Cc1cncc2cccc(S(=O)(=O)N3CCCN(C(=O)CN)C[C@@H]3C)c12"
  Potency: "inactive"
- molecule: "CC1=C(/C=C/C(C)=C/C=C/C(C)=C/C(=O)Nc2ccc(O)cc2)C(C)(C)CCC1"
  Potency: "4610 nM (active)"
- molecule: "NC(N)=NS(=O)(=O)c1ccc(N)cc1"
  Potency: "inactive"

// query Please look up its Potency: OC(CCN1CCCCC1)(c1ccccc1)c1ccccc1
// result inactive

// query Then this molecule: CC[C@@H](C)Nc1cc(C(=O)NC2CC3CC[C@@H](C2)N3c2ccc(C(=O)C3CC3)cn2)c(C)cc1C(N)=O (stereo partly specified)
// result 355 nM (active)

// query Then this molecule: O=c1c(O)c(-c2ccc(O)c(O)c2)oc2cc(O)ccc12
// result inactive

// query Then this molecule: O=C1CCC(N2C(=O)c3ccccc3C2=O)C(=O)N1 (stereo unspecified)
// result inactive

// query Then this molecule: CN/C(=C\[N+](=O)[O-])NCCSCc1csc(CN(C)C)n1
// result inactive

* * *

- method-summary: Viability qHTS for spleen associated tyrosine kinase inhibitor (SYKi) naive MV4-11 cells (AID 1963823); also: nearly all actives have a fitted effect of over 40% in size
- test-context: MV4-11 AML viability, CellTiter-Glo luminescence, 72 h; series mostly up to 45 µM
Results filed as inconclusive are left out. Calls of active or inactive are those of the source. The call rests on the fitted dose curve; in most records, active means well fitted cell-killing curve with a large enough effect; inconclusive means small, poorly fitted or top-dose-only effect, or effect the other way; inactive means no such curve, though single readings can be large or run the other way.
Choose the fitting class; nothing outside 1 = active, -1 = inactive is accepted.

Below, 5 compounds whose answers are already recorded.
- test-smiles: "CNC(=O)c1cccc2cc(Oc3ccnc4cc(OCC5(N)CC5)c(OC)cc34)ccc12"
  qualitative-label: 1
- test-smiles: "Cc1ncc([N+](=O)[O-])n1C[C@H](O)CN1CCOCC1"
  qualitative-label: -1
- test-smiles: "CC(=O)O[C@@H]1CC[C@@]2(C)[C@H](CC[C@@H]3[C@@H]2C[C@H](OC(C)=O)[C@]2(C)[C@@H](C(C)=O)CC[C@@H]32)C1"
  qualitative-label: 1
- test-smiles: "CCCC(=O)O[C@@H]1[C@@H]2[C@@H](OC(C)=O)[C@]3(C)C(=O)[C@H]4[C@@H](OC(C)=O)C(C)(C)C[C@H]4[C@]3(C)C(=O)[C@@]2(OC(C)=O)C[C@@H]1C"
  qualitative-label: -1
- test-smiles: "CS(=O)(=O)c1ccc([C@@H](CC2CCCC2)C(=O)Nc2cnccn2)cc1Cl"
  qualitative-label: 1

Kindly review the next compound as well.
// query Look up the recorded call for C[C@@H]1C[C@H]2[C@@H]3C[C@H](F)C4=CC(=O)C(Cl)=C[C@]4(C)[C@@]3(F)[C@@H](O)C[C@]2(C)[C@@]1(O)C(=O)CO in this test.
// result 1
